# credit: ChEMBL document CHEMBL2321850

ASSAY OVERVIEW: Cytotoxicity against human LNCAP cells assessed as growth inhibition at 10 uM after 72 hrs by MTT assay
Format: cell-based
PROTOCOL CONDITIONS: read-out: Activity
MEASUREMENT LABEL: inhibition at 72 h, 10 µM (%)
Field format: number, assumed %, no unit text.

Solved cases below.
O=C(CC(Sc1cccc2cccnc12)c1ccc(OC(F)F)cc1)c1ccco1 (centres undefined) ... 73
Cc1ccccc1NCc1ccc(O)c2ncccc12 ... 0
O=C(CC(Sc1cccc2cccnc12)c1ccc(F)cc1)c1cccs1 (centres undefined) ... 21

Now, please, on to the next compound.
stdin: # query: inhibition at 72 h, 10 µM of entry "Cc1ccc(S(=O)(=O)NC(=O)Oc2cccc3cccnc23)cc1"
stdout: 13

---

Tested on: MT4
ASSAY OVERVIEW: Cytotoxicity against human MT4 cells assessed as cell viability after 72 hrs by MTT assay
Assay type: cell-based
PROTOCOL CONDITIONS: mt4, 72 h
MEASUREMENT LABEL: CC50 (µM)
Report the figure in µM without appending any unit label.

Known CC50 results, listed for orientation:
CN1CCN(Cc2ccc(O)c3ncccc23)CC1 ... 35
Cc1cccc(NCc2ccc(O)c3ncccc23)n1 ... 2
CCOc1ccc(NCc2ccc(O)c3ncccc23)cc1 ... 11
Cc1ccc(NCc2ccc(O)c3ncccc23)cc1C ... 33.5
CCC(=O)NC(c1ccc(OC)cc1)c1cc([N+](=O)[O-])c2cccnc2c1O (configuration not stated) ... 10
CCOC(=O)N1CCN(Cc2ccc(O)c3ncccc23)CC1 ... 9
Cc1ccccc1NCc1ccc(O)c2ncccc12 ... 9
Oc1ccc(CN2CCN(c3ccccn3)CC2)c2cccnc12 ... 9

stdin: Recorded CC50 of "Cc1cccc(NCc2ccc(O)c3ncccc23)c1" , please.
stdout: 9

stdin: Looking for the measured CC50 of "Oc1ccc(CN2CCCCC2)c2cccnc12" , can you help?
stdout: 9

stdin: What measured CC50 goes with "Cc1cccnc1NCc1ccc(O)c2ncccc12" ?
stdout: 11

---

Tested on: Human immunodeficiency virus 1
ASSAY OVERVIEW: Inhibition of HIV-1 FLAG-6x-His-tagged integrase interaction to FLAG-tagged LEDGF/p75 at 10 uM preincubated for 30 mins prior to LEDGF/p75 addition measured after 60 mins by quenching assay
Below: a set of entries, each annotated with reported inhibition.

Solved entries (count: 8):
CCC(=O)NC(c1ccc(OC)c(OC)c1)c1cc(Cl)c2cccnc2c1O (stereo not drawn) ... < 50%
COc1ccc(C(NC(C)=O)c2cc([N+](=O)[O-])c3cccnc3c2O)cc1OC (stereo not drawn) ... < 50%
Cc1ccccc1NCc1ccc(O)c2ncccc12 ... < 50%
CCC(=O)NC(c1ccco1)c1cc(Cl)c2cccnc2c1O (stereo not drawn) ... < 50%
Oc1ccc(CN2CCN(Cc3ccccc3)CC2)c2cccnc12 ... < 50%
Oc1ccc(CNc2ccccc2F)c2cccnc12 ... < 50%
Oc1ccc(CN2CCCCC2)c2cccnc12 ... < 50%
COc1cccc(C(NC(C)=O)c2ccc3cccnc3c2O)c1 (stereo not drawn) ... < 50%

stdin: Request the reported inhibition associated with CCCC(=O)NC(c1ccc(OC)cc1)c1ccc2cccnc2c1O (stereo not drawn)
stdout: < 50%

---

ASSAY OVERVIEW: Inhibition of HIV-1 His6-tagged integrase interaction to FLAG-tagged LEDGF/p75 preincubated for 30 mins prior to LEDGF/p75 addition measured after 60 mins by alphascreen assay
Parameters: species or system Human immunodeficiency virus 1
MEASUREMENT LABEL: IC50 (nM)
Just the number please, in nM, no unit attached.

O=C(CC(Sc1cccc2cccnc12)c1ccc(OC(F)F)cc1)c1ccco1 (stereo not given) ... 3000
CCOc1ccc(NCc2ccc(O)c3ncccc23)cc1 ... 4000
Oc1ccc(Cc2ccc(O)c3ncccc23)c2cccnc12 ... 2000
Cc1ccc(S(=O)(=O)NC(=O)Oc2cccc3cccnc23)cc1 ... 1700
Oc1ccc(CNc2ccccc2Cl)c2cccnc12 ... 4800
Oc1ccc(CNc2ccccc2F)c2cccnc12 ... 3700
CCOC(=O)C1CCN(Cc2ccc(O)c3ncccc23)CC1 ... 2200
CCCC(=O)NC(c1ccccc1)c1ccc2cccnc2c1O (stereo not given) ... 1400
CCCC(=O)NC(c1ccc(OC)cc1)c1ccc2cccnc2c1O (stereo not given) ... 4000
COc1cccc(C(NC(C)=O)c2ccc3cccnc3c2O)c1 (stereo not given) ... 2000

Read the next record carefully.
stdin: IC50 for CCC(=O)NC(c1ccc(OC)c(OC)c1)c1cc(Cl)c2cccnc2c1O (stereo not given) ?
stdout: 4000

---

Test system: MT4
ASSAY OVERVIEW: Cytotoxicity against human MT4 cells assessed as cell viability after 72 hrs by MTT assay
Type: cell-based
PROTOCOL CONDITIONS: mt4, 72 h
MEASUREMENT LABEL: CC50

Examples with their reported CC50 follow.
O=C(CC(Sc1cccc2cccnc12)c1ccc(OC(F)F)cc1)c1ccco1 (stereo unspecified) ... 2 µM
Oc1ccc(CNc2cccc(C(F)(F)F)c2)c2cccnc12 ... 10 µM
CCN1CCN(Cc2ccc(O)c3ncccc23)CC1 ... 42 µM
Oc1ccc(CNc2ccc(C(F)(F)F)cc2)c2cccnc12 ... 9 µM
Cc1ccc(S(=O)(=O)NC(=O)Oc2cccc3cccnc23)cc1 ... 2 µM

Next item in the queue.
stdin: # query: CC50 of entry "Cc1cccc(NCc2ccc(O)c3ncccc23)c1C"
stdout: 13 µM

---

ASSAY OVERVIEW: Inhibition of HIV-1 His6-tagged integrase interaction to FLAG-tagged LEDGF/p75 preincubated for 30 mins prior to LEDGF/p75 addition measured after 60 mins by alphascreen assay
Parameters: species or system Human immunodeficiency virus 1
MEASUREMENT LABEL: pIC50
# pIC50 = -log10(concentration in molar units)

Cc1cccc(NCc2ccc(O)c3ncccc23)n1 ... 5.55
Oc1ccccc1C(Nc1nccs1)c1ccc2cccnc2c1O (stereo unspecified) ... 5.33

stdin: Which measured pIC50 value corresponds to "Oc1ccc(CN2CCN(c3ccccn3)CC2)c2cccnc12" ?
stdout: 5.72

stdin: Give its pIC50 value. Item: "CCOCc1ccc(O)c2ncccc12"
stdout: 5.62

stdin: Entry Oc1c(Cl)cc(Cl)c2cccnc12 [CHLOROXINE] : reported pIC50 = ?
stdout: 5.37

stdin: I have this molecule here, "Cc1cccc(NCc2ccc(O)c3ncccc23)c1C" , and I need its recorded pIC50.
stdout: 5.52

stdin: # get_value(readout='pIC50', item= "Oc1ccc(CNc2cccc(C(F)(F)F)c2)c2cccnc12" )
stdout: 5.54

stdin: Can you look up the measured pIC50 of "Oc1ccc(CN2CCN(Cc3ccccc3)CC2)c2cccnc12" for me?
stdout: 5.66

stdin: Recorded pIC50 for "Cc1cccc(NCc2ccc(O)c3ncccc23)c1" , please?
stdout: 5.40

stdin: What value of pIC50 has been reported for the following molecule? O=C(CC(Sc1cccc2cccnc12)c1ccc(F)cc1)c1cccs1 (stereo unspecified)
stdout: 5.52

---

Each item that follows carries a reported selectivity ratio.
ASSAY OVERVIEW: Selectivity index, ratio of CC50 for human MT4 cells to EC50 for HIV infected human MT4 cells
Type: toxicity, cell-based
PROTOCOL CONDITIONS: MT4 cells (CC50) and HIV-infected MT4 cells (EC50)
Respond using a number only.

Cc1ccc(NCc2ccc(O)c3ncccc23)cc1 ... 2

Please examine the following record next.
stdin: Field request: selectivity ratio | item: "Cc1ccc(NCc2ccc(O)c3ncccc23)cc1C"
stdout: 2

---

# reported CC50; entries follow
System: LNCaP
ASSAY OVERVIEW: Cytotoxicity against human LNCAP cells assessed as inhibition of cell proliferation after 72 hrs by MTT assay
Type: cell-based
Answer format: numeric, µM implied, no suffix.

Below, each entry is followed by its recorded CC50 result.
CCCC(=O)NC(c1ccc(OC)cc1)c1ccc2cccnc2c1O (stereo unspecified) ... 0.62
Oc1ccc(Cl)c2cccnc12 ... 5
Oc1ccc(Cc2ccc(O)c3ncccc23)c2cccnc12 ... 0.1
CCC(=O)NC(c1cccs1)c1cc([N+](=O)[O-])c2cccnc2c1O (stereo unspecified) ... 5
Oc1ccccc1C(Nc1nccs1)c1ccc2cccnc2c1O (stereo unspecified) ... 2.4

stdin: Recorded CC50 for CC(=O)NC(c1ccccc1)c1cc(Cl)c2cccnc2c1O (stereo unspecified) , please?
stdout: 0.74

---

Test system: MT4
ASSAY OVERVIEW: Cytotoxicity against human MT4 cells assessed as cell viability after 72 hrs by MTT assay
Type: cell-based
PROTOCOL CONDITIONS: mt4, 72 h
Parameter: CC50. Scope: all listed entries.
Entry rule: numbers only, all in µM.

Recorded results for 5 molecules are shown here.
Cc1ccc(NCc2ccc(O)c3ncccc23)cc1 ... 36.5
Oc1ccc(CNc2ccccc2F)c2cccnc12 ... 9
COc1ccc(C(NC(C)=O)c2cc([N+](=O)[O-])c3cccnc3c2O)cc1OC (stereo unspecified) ... 42
CCOC(=O)C1CCCN(Cc2ccc(O)c3ncccc23)C1 (stereo unspecified) ... 9
Oc1ccc(CN2CCN(Cc3ccccc3)CC2)c2cccnc12 ... 11

Consider the record given below.
stdin: # query: CC50 | item "Oc1ccc(CNc2ccccc2Cl)c2cccnc12" | system: MT4
stdout: 34
